Measured values drawn from paper PMC8953563 for this set.

Assayed Target: PAK4 (Homo sapiens)
Sequence (O96013 whole entry): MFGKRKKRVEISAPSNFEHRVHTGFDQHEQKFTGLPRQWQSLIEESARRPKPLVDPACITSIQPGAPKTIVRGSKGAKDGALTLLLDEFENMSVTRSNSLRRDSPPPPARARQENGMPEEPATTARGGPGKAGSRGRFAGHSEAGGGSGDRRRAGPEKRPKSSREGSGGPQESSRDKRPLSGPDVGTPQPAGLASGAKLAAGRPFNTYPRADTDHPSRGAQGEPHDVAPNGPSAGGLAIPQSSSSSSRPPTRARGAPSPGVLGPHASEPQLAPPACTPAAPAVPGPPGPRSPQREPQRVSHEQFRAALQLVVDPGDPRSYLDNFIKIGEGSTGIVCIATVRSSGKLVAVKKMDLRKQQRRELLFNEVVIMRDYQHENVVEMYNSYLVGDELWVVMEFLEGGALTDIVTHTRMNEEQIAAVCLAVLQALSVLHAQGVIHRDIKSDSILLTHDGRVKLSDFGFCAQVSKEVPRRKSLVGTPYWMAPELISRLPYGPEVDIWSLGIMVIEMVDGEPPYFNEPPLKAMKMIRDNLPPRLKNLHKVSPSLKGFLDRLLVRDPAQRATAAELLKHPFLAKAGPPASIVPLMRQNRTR
Measurement Description: radiometric [γ-33P]-ATP kinase assay (Eurofins KinaseProfiler), myelin basic protein substrate
Format: biochemical
Assay Conditions: read-out: 2
Endpoint Label: pIC50
One number for each entry, as −log10 of the molar value.

input: I have this molecule here, "CC(C)c1nn(C)cc1-c1nc2cc(Cl)cnc2[nH]1" , and I need its recorded pIC50.
output: 5.07
